pIC50: −log10 of the molar value.
Reported pIC50 values, hemolysin alpha from Staphylococcus aureus (Staphylococcus aureus, UniProt P09616).

Example results:
>  <Compound Structure>
O=c1[nH]c2ccc(S(=O)(=O)Nc3ccc(-c4ccc(F)cc4)c(Cl)c3)nc2[nH]c1=O

>  <pIC50>
6.00 to 7.00

$$$$
>  <Compound Structure>
Cc1cc2[nH]c(=O)c(=O)[nH]c2nc1S(=O)(=O)Nc1ccc(-c2ccc3oc(C(C)C)nc3c2)c(Cl)c1

>  <pIC50>
> 7.52

$$$$
>  <Compound Structure>
Cc1cc2[nH]c(=O)c(=O)[nH]c2nc1S(=O)(=O)Nc1ccc2ccccc2c1

>  <pIC50>
6.00 to 7.00

$$$$

Kindly review the next compound as well.
# pIC50 of "Cc1nc2cc(-c3ncc(NS(=O)(=O)c4nc5[nH]c(=O)c(=O)[nH]c5cc4C)cc3Cl)ccc2o1" = > 7.52

Origin of the recorded values: patent US20260217703A1
